# credit: ChEMBL document CHEMBL4382235

# run description: AUC (0 to 24 hrs) in Sprague-Dawley rat at 15 mg/kg, po by LC-MS/MS analysis
# Assay type: ADME, organism-based
# Parameters: dose 15 mg/kg, time < 24 hr, route oral
# test context: in vivo
readout: AUC(0-t) at 24 h (ng·h/mL)
Write it as a number; the unit ng·h/mL goes unstated.

// Input: Cc1cc(O)c(-c2ccc([C@@H](C)CN)cc2)c2c1[nH]c(=O)c1c(O)cccc12 . Output its AUC(0-t) at 24 h only.
4230

* * *

# run description: Oral bioavailability in Sprague-Dawley rat at 15 mg/kg by LC-MS/MS analysis
# Assay type: ADME, organism-based
# test context: in vivo
readout: bioavailability (%)
Respond numerically; units are % and should not be typed.

Supply measured bioavailability of Cc1cc(O)c(-c2ccc([C@@H](C)CN)cc2)c2c1[nH]c(=O)c1c(O)cccc12 in your reply.
100
